Ref: PubChem BioAssay

# z-score per record follows
assay: MM1S myeloma cell viability, profiling panel, resazurin fluorescence, basal, 24 h, PK04 Diversity Set (AID 1174); conditions: higher = more signal, called active from +8 up or from −8 down;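 note: MM1S multiple myeloma cell line; test concentration not given here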
Readout kind: z-score

Compound	Recorded result
O=C1CCCC=C1C(O)C1CCCCC1 (stereo unspecified)	-0.254
COc1ccc(COC(=O)NN=C2C[C@@H](O)[C@@H](O)[C@@H]3[C@@H]4C(=O)N(c5cccc(Oc6ccccc6)c5)C(=O)[C@@H]4CC[C@H]23)cc1	-0.341
CCOC(=O)CCN1C(=O)[C@H]2[C@H]3[C@H](O)[C@H](O)CC(=NNC(=O)OCC)[C@H]3CC[C@H]2C1=O	0.137
CO[C@@H]1COC(=O)CC=C[C@H](C)[C@H](OC)COC(=O)[C@@H]2CCCN2C(=O)CC=C[C@H]1C	0.918
C[C@@H](c1ccccc1)N1C(=O)[C@H]2[C@H]3[C@H](O)[C@H](O)CC(=NOCc4ccccc4)[C@@H]3CC[C@H]2C1=O	-0.457
CCO[C@H](c1cc(OC)cc([N+](=O)[O-])c1OC)[C@H](C)[C@@H](OC)[C@H](C)C=CCC(=O)OC	0.149
O=C(NN=C1C[C@@H](O)[C@@H](O)[C@@H]2[C@@H]3C(=O)N(Cc4ccc5c(c4)OCO5)C(=O)[C@@H]3CC[C@@H]12)OCc1ccccc1	0.987
CC(CCC(=O)OC[C@H]1O[C@H](C#Cc2ccccc2)C=C[C@@H]1Oc1ccc(C)cc1)=NOC[C@@H](C)[C@H](OCc1ccccc1)C(C)C	0.258
CC(C)=NO[C@@H](C)c1cn([C@H](CO)Cc2ccccc2)nn1	-0.597
O=C1[C@H]2[C@H]3[C@H](O)[C@H](O)CC(=NO[C@@H]4O[C@H](CO)[C@@H](O)[C@H](O)[C@H]4O)[C@@H]3CC[C@H]2C(=O)N1c1cccc(Oc2ccccc2)c1	-0.602
COc1ccc(OC[C@H]2CN3[C@@H](CC[C@@H](C)[C@@H]3c3ccc(Br)cc3)C(=O)O2)cc1	0.649
CCc1cc2c(nc1CC)CCN(CCC(C)=NOC[C@@H](C)[C@H](OCc1ccccc1)C(C)C)C2	0.0348
CCN1C(=O)[C@H]2[C@H]3[C@H](O)[C@H](O)CC(=NO[C@H](C)c4cn([C@@H]5COC[C@H]5O)nn4)[C@@H]3CC[C@H]2C1=O	-0.917
C[C@@H]1CC[C@H]2C(=O)OC(CN3C(=O)c4ccccc4C3=O)CN2[C@H]1c1ccc(Br)cc1 (stereo partly specified)	0.668
O=C1C2=CC[C@H]3C(=O)N(c4ccc(F)cc4F)C(=O)[C@H]3[C@H]2[C@H](O)[C@@H]2O[C@H]12	-0.874
C[C@H]1CC[C@H]2C(=O)N[C@H](Cc3ccccc3)C(=O)N2[C@@H]1c1ccccc1	-0.322
COC(=O)[C@@H]1CC[C@H](C)[C@@H](c2ccc(C)cc2)N1C(=O)c1ccc(C=NO[C@@H](C)c2cc(-c3c(C)cc(C)cc3C)no2)cc1	-0.321
CCN1C(=O)[C@H]2[C@H]3[C@H](O)[C@H](O)CC(=NO[C@@H]4O[C@H](COC(C)=O)[C@@H](OC(C)=O)[C@H](OC(C)=O)[C@H]4OC(C)=O)[C@@H]3CC[C@H]2C1=O	-0.974
CCOC(=O)[C@H](Cc1ccccc1)NC(=O)CCC1CC(OC(=O)NCc2ccc3c(c2)OCO3)CC2(CCCC(COC(=O)NCCc3ccc(Cl)cc3)O2)O1 (stereo partly specified)	0.366
COc1cccc([C@H]2Oc3ccc(OC)cc3C(=NOCC[C@@H]3C=C[C@H](OC(C)=O)[C@@H](COC(C)=O)O3)[C@@H]2O)c1	-0.698
CO[C@H]1COC(=O)[C@H](C)COC(=O)[C@@H](OCc2ccccc2)C=C[C@@H]1C	-0.114
